// data source = patent US20160199354A1

- Design: species or system Korean healthy males
- MEASUREMENT PARAMETERS: in vivo, po, 40 mg
ENDPOINT NAME: olmesartan AUC, Median
Put down the number, then write its unit next to it.

Enquiry: Form field: reported olmesartan AUC, Median of "CCCc1nc(C(C)(C)O)c(C(=O)OCc2oc(=O)oc2C)n1Cc1ccc(-c2ccccc2-c2nnn[nH]2)cc1"
Return: 7450 ng·h/mL
